- study.system: KRas G12D (Homo sapiens (Human), UniProt P01116, G12D)
- assay.details: KRas G12D Surface Plasmon Resonance (SPR) Binding Assay
- experimental.conditions: Biacore T200, immobilized biotinylated KRAS protein, 1:1 binding model
- Sequence (P01116-2 other isoform, or with tags, fused parts or gaps G12D): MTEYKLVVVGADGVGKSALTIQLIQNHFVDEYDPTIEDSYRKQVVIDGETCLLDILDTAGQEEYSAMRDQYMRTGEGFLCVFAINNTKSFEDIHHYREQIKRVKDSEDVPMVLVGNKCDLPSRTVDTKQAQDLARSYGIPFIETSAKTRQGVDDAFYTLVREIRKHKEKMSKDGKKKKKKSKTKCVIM
Let's look at some compounds and their measured Kd.
Please state the figure in nM; there is no need to write the unit.

Field Kd (entry "OCC[C@@H](CO)Oc1nc(N2C[C@H]3CC[C@@H](C2)N3)c2cnc(-c3cccc4cccc(Cl)c34)c(F)c2n1" ) reads 4730

Field Kd (entry "CN(C)C1(C)CN(c2nc(N3C[C@H]4CC[C@@H](C3)N4)c3cnc(-c4cccc5cccc(Cl)c45)c(F)c3n2)C1" ) reads 864

* * *

- study.system: KRas G12D (Homo sapiens (Human), UniProt P01116, G12D)
- assay.details: KRas G12D Binding Assay (TR-FRET displacement of Cy5 labelled tracer)
- experimental.conditions: GDP-loaded KRAS G12D (amino acids 1:169), 60 minute incubation at 22° C.
- Sequence (P01116 other isoform, or with tags, fused parts or gaps G12D): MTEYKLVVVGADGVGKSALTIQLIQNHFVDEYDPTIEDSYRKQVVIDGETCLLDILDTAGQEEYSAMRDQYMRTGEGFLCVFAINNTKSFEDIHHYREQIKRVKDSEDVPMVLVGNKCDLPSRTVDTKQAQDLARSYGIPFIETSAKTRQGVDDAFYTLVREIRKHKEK
Let's look at some compounds and their measured IC50.
Please state the figure in nM; there is no need to write the unit.

Please review the following examples before continuing.
compound	IC50 (nM)
CO[C@H]1CN[C@H](COc2nc(N3C[C@H]4CC[C@@H](C3)N4)c3cnc(-c4cccc5cccc(Cl)c45)c(F)c3n2)C1	94.8
C#Cc1c(F)ccc2cccc(-c3ncc4c(N5C[C@H]6CC[C@@H](C5)N6)nc(OCC56CCCN5CCC6)nc4c3F)c12	0.5

Please turn your attention to the following entry.
Field IC50 (entry Oc1cc(-c2ncc3c(N4C[C@H]5CC[C@@H](C4)N5)nc(OCC45CCCN4CCC5)nc3c2F)c2ccccc2c1 [Example 109, bis(2,2,2-trifluoroacetate)] ) reads 0.5

* * *

Let's look at some compounds and their measured Kd.
- study.system: KRas G12D (Homo sapiens (Human), UniProt P01116, G12D)
- assay.details: KRas G12D Surface Plasmon Resonance (SPR) Binding Assay
- experimental.conditions: Biacore T200, immobilized biotinylated KRAS protein, 1:1 binding model
Please state the figure in µM; there is no need to write the unit.

compound	study.system	experimental.value
CN(C)C1CN(c2nc(N3C[C@H]4CC[C@@H](C3)N4)c3cnc(-c4cc(O)cc5ccccc45)c(F)c3n2)C1 [Example 120, bis(2,2,2-trifluoroacetate)]	KRas G12D (Homo sapiens (Human), UniProt P01116, G12D)	0.0421

Please turn your attention to the following entry.
Field Kd (entry CN1CCC[C@H]1COc1nc(N2C[C@H]3CC[C@@H](C2)N3)c2cnc(-c3cccc4cccc(CCC#N)c34)c(F)c2n1 [Example 117, bis(2,2,2-trifluoroacetate)] ) reads 1

* * *

Let's look at some compounds and their measured pIC50.
- study.system: KRas G12D (Homo sapiens (Human), UniProt P01116, G12D)
- assay.details: KRas G12D Binding Assay (TR-FRET displacement of Cy5 labelled tracer)
- experimental.conditions: GDP-loaded KRAS G12D (amino acids 1:169), 60 minute incubation at 22° C.
Scale: negative log10 of molar concentration, which is what pIC50 denotes.

compound	study.system	pIC50
Fc1c(-c2cccc(Cl)c2C2CC2)ncc2c(N3C[C@H]4CC[C@@H](C3)N4)nc(OCC34CCCN3CCC4)nc12	KRas G12D (Homo sapiens (Human), UniProt P01116, G12D)	8.31
Fc1c(-c2cccc3cccc(Cl)c23)ncc2c(N3C[C@H]4CC[C@@H](C3)N4)nc(OCC34CCCN3CC(F)(F)C4)nc12 (some centres unmarked) [Example 93, bis(2,2,2-trifluoroacetate)]	KRas G12D (Homo sapiens (Human), UniProt P01116, G12D)	6.98
CN1CC[C@H](Oc2nc(N3C[C@H]4CC[C@@H](C3)N4)c3cnc(-c4cccc5cccc(Cl)c45)c(F)c3n2)C1	KRas G12D (Homo sapiens (Human), UniProt P01116, G12D)	5.79

Field pIC50 (entry "Cn1ccnc1CCOc1nc(N2C[C@H]3CC[C@@H](C2)N3)c2cnc(-c3cccc4ccc(F)cc34)c(F)c2n1" ) reads 6.14

Field pIC50 (entry "CCc1ccccc1-c1ncc2c(N3C[C@H]4CC[C@@H](C3)N4)nc(OCC34CCCN3CCC4)nc2c1F" ) reads 6.72

Field pIC50 (entry "Cc1ccc(O)cc1-c1ncc2c(N3C[C@H]4CC[C@@H](C3)N4)nc(OCC34CCCN3CCC4)nc2c1F" ) reads 7.88

Field pIC50 (entry CC1(C)CN2C[C@H](F)CC2(COc2nc(N3CC4CCC(C3)N4)c3cnc(-c4cccc5cccc(Cl)c45)c(F)c3n2)C1 (mixture of isomers) ) reads 6.85

* * *

- study.system: KRas G12D (Homo sapiens (Human), UniProt P01116, G12D)
- assay.details: KRas G12D Surface Plasmon Resonance (SPR) Binding Assay
- experimental.conditions: Biacore T200, immobilized biotinylated KRAS protein, 1:1 binding model
Let's look at some compounds and their measured pKd.
Scale: negative log10 of molar concentration, which is what pKd denotes.

compound	parameter.measured	experimental.value
Cn1ccnc1CCOc1nc(N2C[C@H]3CC[C@@H](C2)N3)c2cnc(-c3cccc4cccc(Cl)c34)c(F)c2n1 [Example 114]	pKd	6.42
Cc1cccc2cccc(-c3ncc4c(N5C[C@H]6CC[C@@H](C5)N6)nc(OC[C@@H]5CCCN5C)nc4c3F)c12 [Example 15]	pKd	6.68
CN1CCC[C@H]1COc1nc(N2CC3CCC(CO)(C2)N3)c2cnc(-c3cc(O)cc4ccccc34)c(F)c2n1 (stereo partly shown) [Example 215, bis(2,2,2-trifluoroacetate)]	pKd	7.15

Please turn your attention to the following entry.
Field pKd (entry CN1CCC[C@H]1COc1nc(N2C[C@H]3CC[C@@H](C2)N3)c2cnc(-c3cccc4c3CCC4)c(F)c2n1 [Example 23] ) reads 6.09

* * *

- Tested on: KRas G12D-mediated phosphorylation of ERK in AGS cells (ATCC CRL-1739) expressing G12D
- assay.details: Inhibition of KRas G12D-mediated Phosphorylation of ERK in AGS cells
- Assay type: cell-based
- experimental.conditions: Homo sapiens; phospho-ERK(Thr202/Tyr204) normalized to GAPDH, AGS cells, 3 hours; read-out: IC50
pIC50: −log10 of the molar value.
Would you mind labelling by pIC50? At or over 6 is T, under is F.

Recorded results for 3 compounds are shown here.
compound	assigned.label
Cc1cc2[nH]ncc2c(-c2ncc3c(N4C[C@H]5CC[C@@H](C4)N5)nc(OCC45CCCN4CC(F)C5)nc3c2F)c1Cl (mixture of isomers)	T
N#CC[C@@H]1C[C@@H]2CN(c3nc(OC[C@@]45CCCN4C[C@H](F)C5)nc4c(F)c(-c5cc(O)cc6ccccc56)ncc34)C[C@H]1N2 (racemic)	F
Fc1c(-c2cccc3cccc(Cl)c23)ncc2c(N3C[C@H]4CC[C@@H](C3)N4)nc(OCCCN3C[C@@H]4C[C@H]3CO4)nc12	F

Item "CCc1cccc2cc(O)cc(-c3ncc4c(N5C[C@H]6CC[C@@H](C5)N6)nc(OC[C@]56CCCN5C[C@@H](F)C6)nc4c3F)c12" with pIC50 of 6 or above? T

Item "C#Cc1c(F)ccc2cc(O)cc(-c3ncc4c(N5C[C@H]6CC[C@@H](C5)N6)nc(OC[C@]56CCCN5C[C@@H](F)C6)nc4c3F)c12" with pIC50 of 6 or above? T

* * *

- study.system: KRas G12D (Homo sapiens (Human), UniProt P01116, G12D)
- assay.details: KRas G12D Binding Assay (TR-FRET displacement of Cy5 labelled tracer)
- experimental.conditions: GDP-loaded KRAS G12D (amino acids 1:169), 60 minute incubation at 22° C.
pIC50: −log10 of the molar value.
Measured pIC50 determines class: class A (below 6), class B (6 to below 8), class C (8 or more)

Recorded results for 3 compounds are shown here.
compound	assigned.label
Fc1c(-c2cncc3cccc(Cl)c23)ncc2c(N3C[C@H]4CC[C@@H](C3)N4)nc(OC[C@]34CCCN3C[C@@H](F)C4)nc12	class B
Cn1cncc1CCOc1nc(N2C[C@H]3CC[C@@H](C2)N3)c2cnc(-c3cc(O)cc4ccccc34)c(F)c2n1	class B
O[C@@H]1C[C@@H]2CN(c3nc(OCCc4ccc(F)cn4)nc4c(F)c(-c5cccc6cccc(Cl)c56)ncc34)C[C@H]1N2	class A

Here is the next item to consider.
Which pIC50 band matches "Oc1cc(-c2ncc3c(N4C[C@H]5CC[C@@H](C4)N5)nc(OCCc4ccccc4)nc3c2F)c2ccccc2c1" ? class A

* * *

Let's look at some compounds and their measured IC50.
- study.system: KRas G12D (Homo sapiens (Human), UniProt P01116, G12D)
- assay.details: KRas G12D Binding Assay (TR-FRET displacement of Cy5 labelled tracer)
- experimental.conditions: GDP-loaded KRAS G12D (amino acids 1:169), 60 minute incubation at 22° C.
Just the number plus its unit, please.

Please review the following examples before continuing.
compound	IC50
O=C(OC[C@H]1CC[C@@]2(COc3nc(N4CC5CCC(C4)N5)c4cnc(-c5cccc6cccc(Cl)c56)c(F)c4n3)CCCN12)N1CCOCC1 [Example 445]	2.7 nM
OCc1cccc2cccc(-c3ncc4c(N5C[C@H]6CC[C@@H](C5)N6)nc(OCC56CCCN5CCC6)nc4c3F)c12 [Example 238]	16.1 nM
Fc1c(-c2cccc3cccc(-c4c[nH]nn4)c23)ncc2c(N3C[C@H]4CC[C@@H](C3)N4)nc(OCC34CCCN3CCC4)nc12 [Example 180]	76.1 nM
Cc1cccc(-c2ncc3c(N4C[C@H]5CC[C@@H](C4)N5)nc(OCC45CCCN4CCC5)nc3c2F)c1C [Example 275]	53.8 nM
Oc1cc(-c2ncc3c(N4C[C@H]5CC[C@@H](C4)N5)nc(OC4CCSCC4)nc3c2F)c2ccccc2c1 [Example 79]	336 nM
Oc1cc(-c2ncc3c(N4C[C@H]5CC[C@@H](C4)N5)nc(N4CC5(CCOCC5)C4)nc3c2F)c2ccccc2c1 [Example 74]	188 nM
CC1(N)CN(c2nc(N3C[C@H]4CC[C@@H](C3)N4)c3cnc(-c4cc(O)cc5ccccc45)c(F)c3n2)C1 [Example 124]	8.6 nM
Fc1c(-c2cccc3cccc(Cl)c23)ncc2c(N3CC4CC(F)C(C3)N4)nc(OC[C@@]34CCCN3C[C@H](F)C4)nc12 (stereo partly drawn) [Example 396]	207 nM

Observed IC50 on KRas G12D (Homo sapiens (Human), UniProt P01116, G12D), entry CN1CCC[C@H]1COc1nc(N2C[C@H]3CC[C@@H](C2)N3)c2cnc(-c3cccc4cccc(Cl)c34)c(F)c2n1 [Example 132] , equals 60.5 nM
